Data origin, for the record: paper PMC4775997

- Test system: 3D7 PKG T618Q
- METHOD_SUMMARY: microbe, parasite or virus in culture
- Assay type: cell-based, Plasmodium falciparum
- COND: Table 2
OBSERVED_PROPERTY: 3D7 PKG T618Q/3D7 EC50 ratio
Answer with a bare number; do not write a unit.

Example entries begin here.
COMPOUND: Fc1cccnc1Nc1ncc(-c2cnc3ccc(NC4CCC(N5CCNCC5)CC4)nn23)cn1 (stereo not drawn)
3D7 PKG T618Q/3D7 EC50 ratio: 10.8
//
COMPOUND: CNc1ccc2ncc(-c3ccc(NCCC(C)C)nc3)n2n1
3D7 PKG T618Q/3D7 EC50 ratio: 1.5
//
COMPOUND: CC(C)CCNc1ccc(-c2cnc3ccc(NC4CCN(C)C4)nn23)cn1 (stereo not drawn)
3D7 PKG T618Q/3D7 EC50 ratio: 1.4

Any idea what 3D7 PKG T618Q/3D7 EC50 ratio came out for NC1CCC(Nc2ccc3ncc(-c4cnc(Nc5ccccn5)c(F)c4)n3n2)CC1 (stereo not drawn) on 3D7 PKG T618Q?
1.8

Under 3D7 PKG T618Q: 3D7 PKG T618Q/3D7 EC50 ratio value of CC(C)CNc1ncc(-c2cnc3ccc(NC4CCN(C)CC4)nn23)cn1 ?
2.0

Query 3D7 PKG T618Q/3D7 EC50 ratio on 3D7 PKG T618Q for CN1CCC(CNc2ccc3ncc(-c4cnc(Nc5ncccc5F)nc4)n3n2)CC1
11.8

###

- SYSTEM: PfPKG (Plasmodium falciparum, UniProt Q8I719)
- Construct: plasmids (pTrcHisC) encoding full-length PfPKG and PfPKG T618Q with N-terminal His tags; His tag (N); made in house; host or cells: E. coli Rosetta2(DE3)
- METHOD_SUMMARY: Microfluidic fluorescent shift assay of cGMP-dependent protein kinase activity
- Assay type: biochemical
- COND: Table S2; read-out: Enzyme inhibition IC50, PKG
pIC50: −log10 of the molar value.
Please use condition met whenever pIC50 is not below 7, and condition not met whenever it is.

Say whether CN1CCC(Nc2ccc3ncc(-c4cnc(Nc5ncccc5F)nc4)n3n2)CC1 shows pIC50 of 7 or more.
condition met

Say whether CC(C)CCNc1ccc(-c2cnc3ccc(NC4CCNCC4)nn23)cn1 shows pIC50 of 7 or more.
condition not met

hey, is pIC50 for this one >= 7? CN1CCC(Nc2ccc3ncc(-c4cc(F)c(Nc5ncccc5F)c(F)c4)n3n2)CC1
condition not met

###

- SYSTEM: CDPK1 (Plasmodium falciparum)
- METHOD_SUMMARY: biochemical
- Type: biochemical
- COND: Table S2; read-out: Enzyme inhibition IC50, CDPK1
Documented IC50 across a set of compounds
A number alone suffices; assume nM.

Would you please look over these solved cases?
COMPOUND: CC(C)CCNc1ncc(-c2cnc3ccc(NC4CCNCC4)nn23)cn1
IC50 [nM]: 18

COMPOUND: Fc1cccnc1Nc1ccc(-c2cnc3ccc(NC4CCNCC4)nn23)cc1
IC50 [nM]: 14

COMPOUND: Fc1cccnc1Nc1ncc(-c2cnc3ccc(NC4CCNCC4)nn23)cn1
IC50 [nM]: 10

COMPOUND: c1ccc(Nc2ncc(-c3cnc4ccc(NC5CCNCC5)nn34)cn2)nc1
IC50 [nM]: 9

COMPOUND: CN1CCC(Nc2ccc3ncc(-c4cc(F)c(Nc5ncccc5F)c(F)c4)n3n2)CC1
IC50 [nM]: 17

COMPOUND: CN(C)C1CCN(c2ccc3ncc(-c4cnc(Nc5ncccc5F)nc4)n3n2)C1 (centres unmarked)
IC50 [nM]: 17

COMPOUND: Fc1cccnc1Nc1ccc(-c2cnc3ccc(NC4CCNCC4)nn23)cn1
IC50 [nM]: 11

COMPOUND: CC(C)CCNc1ccc(-c2cnc3ccc(NC4CCNCC4)nn23)cn1
IC50 [nM]: 15

Switching to the query record.
GET /values?readout=IC50&item= CC(C)CCNc1ncc(-c2cnc3ccc(NC4CCN(C)C4)nn23)cn1 (centres unmarked)
93
